- assay.target: RXRα LBD (Homo sapiens)
- Construct: peptide to the RXRα LBD (aa 225–462) was studied
- Sequence (P19793 225-462): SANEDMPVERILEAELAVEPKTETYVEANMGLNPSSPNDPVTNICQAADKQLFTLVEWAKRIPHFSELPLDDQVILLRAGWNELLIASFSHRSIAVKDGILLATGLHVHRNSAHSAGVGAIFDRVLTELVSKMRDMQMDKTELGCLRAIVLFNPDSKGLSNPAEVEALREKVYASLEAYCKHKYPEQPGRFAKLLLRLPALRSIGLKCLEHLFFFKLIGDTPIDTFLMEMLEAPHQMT
- protocol.description: HTRF-based SRC-1 co-activator recruitment assay
- Format: biochemical
- particulars: HTRF, in the presence of 0.3 µM bexarotene; read-out: EC50 SRC-1 recruitment to RXRα in the presence of 0.3 µM bexarotene
endpoint.name: EC50 (µM)
Numbers only, in µM.

Measured EC50, CCCCCCCCCCCCCCCC(=O)O : 3.1

Now look at this entry.
Measured EC50, CCCCCCCCCCCCCCCCCC(=O)O : 14
